Test: Quantitative High-Throughput drug screen in 47 multiple myeloma cell lines against the NCATS MIPE library collection: XG1_PLB cell viability assay (AID 1919866); further: nearly all actives have a fitted effect of over 35% in size
Conditions: CellTiter-Glo ATP, 48 h; series mostly up to 45.8 µM
Excerpt: PI: Beverly A. Mock Ph.D. Laboratory of Cancer Biology and Genetics, Center for Cancer Research, National Cancer Institute, National Institute of Health, Bethesda, Maryland […] 5; Detector; 425V; Luminescence; Viewlux PerkinElmer. […] 1. […] Briefly, the corresponding myeloma cell lines were screened in 1,536-well plates with 500 cells, 5-uL per well for inhibition of cell viability (assessed by measuring ATP levels with CellTiterGlo). […]
Inconclusive results are not listed. Active and inactive are the calls of the source. The call rests on the fitted dose curve; in most records, active means well fitted cell-killing curve with a large enough effect; inconclusive means small, poorly fitted or top-dose-only effect, or effect the other way; inactive means no such curve, though single readings can be large or run the other way.
Classes used: Y = active, N = inactive

| Molecule | Label class |
| --- | --- |
| Cc1ccccc1N1C(=O)c2cc(S(N)(=O)=O)c(Cl)cc2NC1C (stereo not given) | N |
| CCc1cccc2c3c([nH]c12)C(CC)(CC(=O)O)OCC3 (stereo not given) | N |
| CN1CCC(=C2c3ccccc3CC(=O)c3sccc32)CC1 | Y |
| O=C1Cc2cc(CCN3CCN(c4nsc5ccccc45)CC3)c(Cl)cc2N1 | Y |
| COc1ccccc1OCC(O)CN1CCN(CC(=O)Nc2c(C)cccc2C)CC1 (stereo not given) | N |
